System: 996289-038-R-J1-PDC spheroid viability;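 also: luminescence used as a proxy for viable cell amount; spheroids exposed to compounds for seven days before viability read; percent viability relative to DMSO vehicle control as 100%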
Assay: Anticancer human tumor 996289-038-R-J1-PDC patient-derived colon adenocarcinoma cell line growth inhibition [PI3K]
Conditions: second compound 0.1 µM; first compound 10 µM; hits give low values; spheroids with HUVEC and MSC
observationType: viability, T/C (%)

[[record]]
compound = "CC1(C)CCC(CN2CCN(c3ccc(C(=O)NS(=O)(=O)c4ccc(NCC5CCOCC5)c([N+](=O)[O-])c4)c(Oc4cnc5[nH]ccc5c4)c3)CC2)=C(c2ccc(Cl)cc2)C1 + CC(Nc1ncnc2nc[nH]c12)c1cc2cccc(Cl)c2c(=O)n1-c1ccccc1"
subjectoftest = "996289-038-R-J1-PDC spheroid viability"
assayvalue = 67

[[record]]
compound = "Cn1nccc1Nc1nccc(-c2ccn(C(CO)c3ccc(Cl)c(F)c3)c(=O)c2)n1 (stereo not given) + COc1c(OCCCN2CCOCC2)ccc2c3n(c(=NC(=O)c4cnc(N)nc4)nc12)CCN3"
subjectoftest = "996289-038-R-J1-PDC spheroid viability"
assayvalue = 22.4

[[record]]
compound = "C[C@@H](NC(=O)c1ncnc(N)c1Cl)c1ncc(C(=O)Nc2cc(C(F)(F)F)c(Cl)cn2)s1 + CC(Nc1ncnc2nc[nH]c12)c1cc2cccc(Cl)c2c(=O)n1-c1ccccc1"
subjectoftest = "996289-038-R-J1-PDC spheroid viability"
assayvalue = 111

[[record]]
compound = "Cn1nccc1Nc1nccc(-c2ccn(C(CO)c3ccc(Cl)c(F)c3)c(=O)c2)n1 (stereo not given) + Cc1nc(NC(=O)N2CCCC2C(N)=O)sc1-c1ccnc(C(C)(C)C(F)(F)F)c1"
subjectoftest = "996289-038-R-J1-PDC spheroid viability"
assayvalue = 52.1

[[record]]
compound = "C[C@@H](NC(=O)c1ncnc(N)c1Cl)c1ncc(C(=O)Nc2cc(C(F)(F)F)c(Cl)cn2)s1 + CC(Nc1ccc2c(c1)OCCn1cc(N3C(=O)OCC3C(F)F)nc1-2)C(N)=O"
subjectoftest = "996289-038-R-J1-PDC spheroid viability"
assayvalue = 110

[[record]]
compound = "CNC(=O)c1ccc(N2C(=S)N(c3ccc(C#N)c(C(F)(F)F)c3)C(=O)C2(C)C)cc1F + CC(Nc1ccc2c(c1)OCCn1cc(N3C(=O)OCC3C(F)F)nc1-2)C(N)=O"
subjectoftest = "996289-038-R-J1-PDC spheroid viability"
assayvalue = 72

[[record]]
compound = "C#Cc1c(F)ccc2cc(O)cc(-c3ncc4c(N5CC6CCC(C5)N6)nc(OCC56CCCN5CC(F)C6)nc4c3F)c12 (stereo not given) + CC(Nc1ccc2c(c1)OCCn1cc(N3C(=O)OCC3C(F)F)nc1-2)C(N)=O"
subjectoftest = "996289-038-R-J1-PDC spheroid viability"
assayvalue = 26.1

[[record]]
compound = "Cn1nccc1Nc1nccc(-c2ccn(C(CO)c3ccc(Cl)c(F)c3)c(=O)c2)n1 (stereo not given) + CC(Nc1ccc2c(c1)OCCn1cc(N3C(=O)OCC3C(F)F)nc1-2)C(N)=O"
subjectoftest = "996289-038-R-J1-PDC spheroid viability"
assayvalue = 46.8

[[record]]
compound = "C#Cc1c(F)ccc2cc(O)cc(-c3ncc4c(N5CC6CCC(C5)N6)nc(OCC56CCCN5CC(F)C6)nc4c3F)c12 (stereo not given) + COc1c(OCCCN2CCOCC2)ccc2c3n(c(=NC(=O)c4cnc(N)nc4)nc12)CCN3"
subjectoftest = "996289-038-R-J1-PDC spheroid viability"
assayvalue = 14.8

[[record]]
compound = "C=CC(=O)N1CCN(c2nc(=O)n(-c3c(C)ccnc3C(C)C)c3nc(-c4c(O)cccc4F)c(F)cc23)C(C)C1 (stereo not given) + CC(Nc1ncnc2nc[nH]c12)c1cc2cccc(Cl)c2c(=O)n1-c1ccccc1"
subjectoftest = "996289-038-R-J1-PDC spheroid viability"
assayvalue = 97

